Test system: MHC-II presented peptides on human dendritic cells
Protocol text: MAPPS assay (MHC-Associated Peptide Proteomics)
Type: cell-based
Assay context: percentage of donors displaying MHC-II peptides
*1 amine or outer side, *2 acyl side, *3 side chain or, on linkers, in order; H or OH if unused. Side-chain parts run from the residue outwards. [ ]: non-standard residue; d: D form. The star is where a group is joined. C20 diacid = O=C(O)CCCCCCCCCCCCCCCCCCC(=O)*; γGlu = O=C(O)[C@H](CCC(=O)[*:2])N[*:1]; εLys = N[C@@H](CCCCN[*:1])C(=O)[*:2]; pGlu = O=C1CC[C@@H](C(=O)O)N1; αMeL = CC(C)C[C@](C)(N)C(=O)O; AEEA = NCCOCCOCC(=O)O; Aib = CC(C)(N)C(=O)O
Readout kind: MAPPS Assay >10 donors with diverse MHC (%)
Numbers only here, please. The scale is %.

Give MAPPS Assay >10 donors with diverse MHC for [pGlu]GSPSGIVTS[αMeL]DVPT[Aib][αMeL]LQKILEQERAEKARQQAK([γGlu-AEEA-εLys-C20 diacid])EAAEILAQV-NH2 [SEQ ID NO: 22] tested on MHC-II presented peptides on human dendritic cells.
10

Give MAPPS Assay >10 donors with diverse MHC for {C20 diacid-εLys-AEEA-γGlu}-GSPSIVTS[αMeL]DVPT[Aib][αMeL]LQKILEQERAEKARQQATEAAEILAQV-NH2 [SEQ ID NO: 25] tested on MHC-II presented peptides on human dendritic cells.
0

Give MAPPS Assay >10 donors with diverse MHC for γGlu-GPSIVTS[αMeL]D[dV]PI[Aib][αMeL]LQIKLEQERAEKARQQAK([AEEA-AEEA-γGlu-C20 diacid])ENTEILAQV-NH2 [SEQ ID NO: 45] tested on MHC-II presented peptides on human dendritic cells.
0

Give MAPPS Assay >10 donors with diverse MHC for Ac-GSPSIVTS[αMeL]DVPT[Aib][αMeL]LQKILEQERAEKARQQAK([γGlu-AEEA-εLys-C20 diacid])EAAEILAQV-NH2 [SEQ ID NO: 1] tested on MHC-II presented peptides on human dendritic cells.
15
